# measured_target: T1, Y2 receptor (UniProt P49146 1-381, limits assumed)
# T1 sequence (looked up): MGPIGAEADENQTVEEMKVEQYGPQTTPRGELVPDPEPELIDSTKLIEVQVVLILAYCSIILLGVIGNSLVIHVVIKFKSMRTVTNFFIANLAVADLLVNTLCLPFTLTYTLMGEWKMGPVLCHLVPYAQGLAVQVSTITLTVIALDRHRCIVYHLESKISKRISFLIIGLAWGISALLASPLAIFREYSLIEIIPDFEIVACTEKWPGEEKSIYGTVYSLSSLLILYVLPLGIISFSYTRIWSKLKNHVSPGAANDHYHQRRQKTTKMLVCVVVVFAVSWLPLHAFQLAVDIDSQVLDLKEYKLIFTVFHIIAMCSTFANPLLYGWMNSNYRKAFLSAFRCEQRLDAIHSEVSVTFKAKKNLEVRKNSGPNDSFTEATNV
# protocol_description: cell-based or functional assay
*1 amine or outer side, *2 acyl side, *3 side chain or, on linkers, in order; H or OH if unused. Where no end group is shown, it is not given here. Side-chain parts run from the residue outwards. The star is where a group is joined. C20 diacid = O=C(O)CCCCCCCCCCCCCCCCCCC(=O)*; C18 diacid = O=C(O)CCCCCCCCCCCCCCCCC(=O)*; γGlu = O=C(O)[C@H](CCC(=O)[*:2])N[*:1]; Trx = NC[C@H]1CC[C@H](C(=O)O)CC1; AEEA = NCCOCCOCC(=O)O
readout_name: Y2 cAMP EC50

query: Reported Y2 cAMP EC50, binder PLEPVYPGDNATPEQLAQYAADLRRYINLLTRPK([AEEA-AEEA-γGlu-Trx-C20 diacid])Y (ends and bridges not checked) : ____
result: > 1000 nM

query: Give the measured Y2 cAMP EC50 of PLEPVYPGDNATPEQLAQYAADLRRYINLLTK([AEEA-AEEA-γGlu-C18 diacid])PRY (ends and bridges not checked) .
result: > 1000 nM

FYI, the data here is from patent US20110275559A1.
